assay.explanation: Inhibition of helicase activity of BK polyomavirus LTAg (E265 to D629 residues) expressed in Escherichia coli using Cy5/BHQ3 dsDNA pre-incubated for 20 mins and measured after 120 to 180 mins by fluorescence based assay
Parameters: species or system Betapolyomavirus hominis
readout.type: IC50 (µM)
Please give a number only; it is taken to be in µM.

{"columns": ["compound.smiles", "reported.measurement"],
 "data": [
  ["c1cc2c(c(-c3nn4cnnc4s3)c1)OCCC2", 24],
  ["COc1ccccc1-c1nc2ccncc2s1", 10.7],
  ["c1ccc(Oc2ncccc2-c2nn3cnnc3s2)cc1", 11],
  ["c1ccc(Oc2ccncc2-c2nn3cnnc3s2)cc1", 7.3],
  ["CCOc1ccccc1-c1nc2ccncc2s1", 8]
]}

Attention now turns to another entry.
Reported IC50 ( c1ccc(-c2nn3cnnc3s2)c(OCC2CCOCC2)c1 ) = 17

====

target.of.assay: Large T antigen (JC polyomavirus, UniProt P03072)
Sequence (P03072 whole entry): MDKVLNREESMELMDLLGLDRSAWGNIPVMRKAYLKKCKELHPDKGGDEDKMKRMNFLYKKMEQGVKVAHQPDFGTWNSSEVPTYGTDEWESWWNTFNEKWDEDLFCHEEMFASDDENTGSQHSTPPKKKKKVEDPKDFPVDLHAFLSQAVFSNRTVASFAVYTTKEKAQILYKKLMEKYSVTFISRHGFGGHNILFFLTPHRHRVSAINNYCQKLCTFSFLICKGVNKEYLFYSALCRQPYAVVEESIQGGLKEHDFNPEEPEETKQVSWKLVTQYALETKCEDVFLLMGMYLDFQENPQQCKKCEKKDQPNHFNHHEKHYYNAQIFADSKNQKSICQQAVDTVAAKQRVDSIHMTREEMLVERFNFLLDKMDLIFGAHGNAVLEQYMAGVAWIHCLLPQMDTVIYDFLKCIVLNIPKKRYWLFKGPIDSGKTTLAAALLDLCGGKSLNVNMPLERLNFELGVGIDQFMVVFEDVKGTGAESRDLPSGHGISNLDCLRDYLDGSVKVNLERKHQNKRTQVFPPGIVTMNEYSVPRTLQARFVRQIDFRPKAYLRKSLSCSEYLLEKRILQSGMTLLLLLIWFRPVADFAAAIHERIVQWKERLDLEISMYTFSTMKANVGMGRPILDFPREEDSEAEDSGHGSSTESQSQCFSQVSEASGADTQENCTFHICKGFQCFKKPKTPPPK
# IC50 values compiled below

Study these solved cases before continuing.
{"columns": ["compound.smiles", "reported.measurement"],
 "data": [
  ["COc1ccccc1Cc1nn2cnnc2s1", "> 80 µM"],
  ["Nc1ccccc1-c1nn2cnnc2s1", "> 80 µM"]
]}

Attention now turns to another entry.
Reported IC50 ( COc1cccc(OC)c1-c1nn2cnnc2s1 ) = > 80 µM

====

Tested on: JC polyomavirus
assay.explanation: Antiviral activity against JC polyomavirus infected in […] G144 […] cells assessed as reduction in late viral protein and viral capsid protein VP1 incubated for 72 hrs by branched DNA assay
Type: functional, organism-based
readout.type: EC50 (µM)
Please give a number only; it is taken to be in µM.

Reported EC50 ( CCOc1ccccc1-c1nc2ccncc2s1 ) = 7.4

Reported EC50 ( c1ccc(-c2nc3ccncc3s2)c(OCCC2CCOCC2)c1 ) = 7.7

Reported EC50 ( c1ccc(Oc2ccccc2-c2nn3cnnc3s2)cc1 ) = 34

Reported EC50 ( CCOc1ccccc1-c1nn2cnnc2s1 ) = 44

Reported EC50 ( CC(=O)Nc1ccc(Oc2ncccc2-c2nc3ccncc3s2)cc1 ) = 40

Reported EC50 ( c1ccc(Oc2ccccc2-c2nc3ccncc3s2)cc1 ) = 36

Reported EC50 ( c1cc2c(c(-c3nc4ccncc4s3)c1)OCC2 ) = 0.26
